Exercise: for every item that follows, state its recorded log10(IC50).
- Tested on: MIA PaCa-2 cells
- run description: Growth inhibition activity on KRAS-G12C mutant cell line (CellTiter-Glo 3D)
- Assay type: cell-based, human
- measurement context: Homo sapiens, MIA PaCa-2, 72 h, MIA PaCa-2, 3-day culture with compound; Table 3-1
Please interpret these as log10 of IC50 where IC50 is in nM.

IN: What measured log10(IC50) goes with CO[C@H]1CC[C@H](NC/C=C/C(=O)Nc2ccc(C(=O)c3cn4c5c(cccc35)-c3c(C(F)(F)F)cc5c(nc(C)n5C)c3N(C)CC4)nc2)CC1 ?
OUT: 0.84

IN: And then Cc1cc2c(nc(C)n2C)c2c1-c1cccc3c(C(=O)c4cc(F)c(NC(=O)/C=C/CN5[C@@H]6CC[C@H]5[C@@H](O)C6)c(F)c4)cn(c13)CCN2C (racemic) , what is it?
OUT: 1.93

IN: Also need Cn1cnc2c3c(c(C(F)(F)F)cc21)-c1cccn2c(C(=O)c4cc(F)c(NC(=O)/C=C/CN5C6CCC5CC6)c(F)c4)cc(c12)CCO3 , thanks.
OUT: 0.61

IN: And what about the molecule COCCn1cnc2c3c(c(C(F)(F)F)cc21)-c1cccn2c(C(=O)c4cc(F)c(NC(=O)/C=C/CN[C@H]5CCOC5)c(F)c4)cc(c12)CCN3C (single isomer, unassigned) ?
OUT: 1.01

IN: Further, for COc1cc2c(nc(C)n2C)c2c1-c1cccn3c(C(=O)c4cc(F)c(NC(=O)/C=C/CNC5(C)COC5)c(F)c4)cc(c13)CCN2C (single isomer, unassigned) ?
OUT: 1.54

Entry source: patent US20240262842A1
